Kindly state Total Cell Count for each of the entries shown.
# Test system: HEK-293T
# testName: Multiplex assay against HEK293T
# Type: toxicity, cell-based
# testConditions: human, 24 h, 10 µM, compound concentration 10 uM, replicate 1

Known Total Cell Count results, listed for orientation:
[[record]]
molecule = "COc1cc(N2CCN(C)CC2)ccc1Nc1ncc2c(n1)N(C)c1ccccc1C(=O)N2C"
result = 170

[[record]]
molecule = "COc1ccc(-c2ccc3c(N4CCOCC4)nc(N4C[C@@H](C)O[C@@H](C)C4)nc3n2)cc1CO [Ku-0063794]"
result = 759

[[record]]
molecule = "CCn1c(=O)c(-c2ccc(-c3cncs3)cc2Cl)cc2cnc(Nc3ccc(N4CCN(C)CC4)cc3)nc21"
result = 1552


List reported Total Cell Count for each of these molecules:
1. O=C(Nc1ccc(-c2ccnc(Nc3ccc(N4CCOCC4)cc3)n2)cc1)[C@@H]1CCCN1
2. CCn1cc(-c2ccnc3[nH]c(-c4cccc(CN(C)C)c4)cc23)c(-c2ccc(NC(=O)N(C)C)cc2)n1 [GSK-1070916]
3. O=C(Nc1ccc(-n2nc(-c3cccnc3)cc2C(F)(F)F)cn1)c1ccc(-c2ccccc2)c(F)c1 [BI 2049]
4. CCCS(=O)(=O)c1nc(NC2CC2)cc(-c2ccc3c(ccn3C3CC(C)(C)NC(C)(C)C3)c2)n1
5. CCN1CCN(Cc2ccc(Nc3ncc(F)c(-c4cc(F)c5nc(C)n(C(C)C)c5c4)n3)nc2)CC1.CS(=O)(=O)O
6. CCOc1cc2ncc(C#N)c(Nc3ccc(OCc4ccccn4)c(Cl)c3)c2cc1NC(=O)/C=C/CN(C)C [NERATINIB]
7. COc1cccc2cc(-c3nc([C@H]4CC[C@H](C(=O)O)CC4)n4ncnc(N)c34)[nH]c12 [OSI-027]
8. Cl.O=c1c2cccn2c2ccccc2n1CCCN1CCC(c2ccc(Cl)cc2)CC1

Result string:
1: 242; 2: 562; 3: 266; 4: 639; 5: 287; 6: 1427; 7: 371; 8: 286

Data origin: ChEMBL document CHEMBL4689842
